Provenance of the data: paper PMC8584173

# Tested on: S. epidermidis 471
# test.summary: MIC, hospital MRSE strain
# Assay type: cell-based, Staphylococcus epidermidis
# condition.parameters: hospital MRSE S. epidermidis 471
measurement.type: MIC
// return the numeric value with its unit appended

Record excerpt, results attached:
Looking up O=[N+]([O-])c1cc([N+]2=C(Nc3ccc(Cl)c(Cl)c3)[S][Cu-2]23[S]C(Nc2ccc(Cl)c(Cl)c2)=[N+]3c2ccc(Cl)c([N+](=O)[O-])c2)ccc1Cl [Compound 5] , I found its MIC recorded as 32 µg/mL

// sample O=[N+]([O-])c1cc([N+]2=C(Nc3ccc(I)cc3)[S][Cu-2]23[S]C(Nc2ccc(I)cc2)=[N+]3c2ccc(Cl)c([N+](=O)[O-])c2)ccc1Cl [Compound 8] , its MIC was 8 µg/mL

I need MIC for every entry listed below, if you could help.
1. O=[N+]([O-])c1cc([N+]2=C(Nc3ccccc3Br)[S][Cu-2]23[S]C(Nc2ccccc2Br)=[N+]3c2ccc(Cl)c([N+](=O)[O-])c2)ccc1Cl [Compound 1]
2. O=[N+]([O-])c1cc(NC2=[N+](c3ccc(Cl)c([N+](=O)[O-])c3)[Cu-2]3([S]2)[S]C(Nc2ccc(Cl)c([N+](=O)[O-])c2)=[N+]3c2ccc(Cl)c([N+](=O)[O-])c2)ccc1Cl [Compound 6]
3. O=[N+]([O-])c1cc([N+]2=C(Nc3cccc(Br)c3)[S][Cu-2]23[S]C(Nc2cccc(Br)c2)=[N+]3c2ccc(Cl)c([N+](=O)[O-])c2)ccc1Cl [Compound 2]

a:
1. 8 µg/mL
2. 64 µg/mL
3. 8 µg/mL

###

# System: S. epidermidis 469
# test.summary: MIC, hospital MRSE strain
# Type: cell-based, Staphylococcus epidermidis
# condition.parameters: hospital MRSE S. epidermidis 469
Please go through the items and note down their MIC.
Answers are plain numbers, in µg/mL.

Just so you know, measured MIC for O=[N+]([O-])c1cc([N+]2=C(Nc3ccc(I)cc3)[S][Cu-2]23[S]C(Nc2ccc(I)cc2)=[N+]3c2ccc(Cl)c([N+](=O)[O-])c2)ccc1Cl [Compound 8] came out at 8

Lab note: measured MIC of O=[N+]([O-])c1cc([N+]2=C(Nc3ccc(Br)cc3)[S][Cu-2]23[S]C(Nc2ccc(Br)cc2)=[N+]3c2ccc(Cl)c([N+](=O)[O-])c2)ccc1Cl [Compound 3] was 4

response.value for O=[N+]([O-])c1cc(NC2=[N+](c3ccc(Cl)c([N+](=O)[O-])c3)[Cu-2]3([S]2)[S]C(Nc2ccc(Cl)c([N+](=O)[O-])c2)=[N+]3c2ccc(Cl)c([N+](=O)[O-])c2)ccc1Cl [Compound 6] (field: MIC) = 64

Form: molecule = O=[N+]([O-])c1cc([N+]2=C(Nc3ccccc3F)[S][Cu-2]23[S]C(Nc2ccccc2F)=[N+]3c2ccc(Cl)c([N+](=O)[O-])c2)ccc1Cl [Compound 7] ; MIC = 8

Looking up O=[N+]([O-])c1cc([N+]2=C(Nc3ccc(Cl)c(Cl)c3)[S][Cu-2]23[S]C(Nc2ccc(Cl)c(Cl)c2)=[N+]3c2ccc(Cl)c([N+](=O)[O-])c2)ccc1Cl [Compound 5] , I see its MIC listed as 32

The molecule O=[N+]([O-])c1cc([N+]2=C(Nc3cccc(Br)c3)[S][Cu-2]23[S]C(Nc2cccc(Br)c2)=[N+]3c2ccc(Cl)c([N+](=O)[O-])c2)ccc1Cl [Compound 2] showed MIC equal to 8

Quick one: give me MIC for each item below, same order please.
1. O=[N+]([O-])c1cc([N+]2=C(Nc3ccccc3Br)[S][Cu-2]23[S]C(Nc2ccccc2Br)=[N+]3c2ccc(Cl)c([N+](=O)[O-])c2)ccc1Cl [Compound 1]
2. O=[N+]([O-])c1cc([N+]2=C(Nc3ccc(F)c(Cl)c3)[S][Cu-2]23[S]C(Nc2ccc(F)c(Cl)c2)=[N+]3c2ccc(Cl)c([N+](=O)[O-])c2)ccc1Cl [Compound 4]

a:
8
4
